From: PubChem BioAssay (Tox21)

Method Notes: qHTS assay to identify small molecule antagonists of the TGF-beta/Smad signaling pathway - cell viability counter screen (AID 1346824); further: nearly all actives have a fitted effect of over 50% in size
Condition Notes: SBE-bla HEK293T viability, CellTiter-Glo luminescence; series mostly up to 76.8 µM
Inconclusive results are not listed. The source made the active and inactive calls. The call rests on the fitted dose curve; in most records, active means well fitted cell-killing curve with a large enough effect in the repeat runs; inconclusive means weak or mixed curves; inactive means flat fitted curve, though single readings scatter.
Recorded Endpoint: viability change, negative = cytotoxic

Below, 5 molecules whose answers are already recorded.
{"columns": ["Molecule", "Meas Value"],
 "data": [
  ["CCC(C)(C)c1ccc(O)c(C(C)(C)CC)c1", "inactive"],
  ["CCCCCCCCCCCCCCCl", "inactive"],
  ["COc1ccc2c(c1OC)C(=O)O[C@H]2[C@@H]1c2cc3c(cc2CCN1C)OCO3", "inactive"],
  ["C[N+](C)(C)CC1CO1 (stereo not drawn)", "inactive"],
  ["CC(C)(c1ccccc1)c1cc(-n2nc3ccccc3n2)c(O)c(C(C)(C)c2ccccc2)c1", "inactive"]
]}

Required: viability change, negative = cytotoxic, one value per molecule below.
1. COP(=O)(OC)OC(Br)C(Cl)(Cl)Br (stereo not drawn)
2. O=C(O)c1cc(I)cc(I)c1I

Reply text:
["inactive", "inactive"]
